Let's look at some binders and their measured ADCC reporter EC50.
Target: T1, human SLC34A2 (human, UniProt O95436 1-690)
T1 sequence (looked up): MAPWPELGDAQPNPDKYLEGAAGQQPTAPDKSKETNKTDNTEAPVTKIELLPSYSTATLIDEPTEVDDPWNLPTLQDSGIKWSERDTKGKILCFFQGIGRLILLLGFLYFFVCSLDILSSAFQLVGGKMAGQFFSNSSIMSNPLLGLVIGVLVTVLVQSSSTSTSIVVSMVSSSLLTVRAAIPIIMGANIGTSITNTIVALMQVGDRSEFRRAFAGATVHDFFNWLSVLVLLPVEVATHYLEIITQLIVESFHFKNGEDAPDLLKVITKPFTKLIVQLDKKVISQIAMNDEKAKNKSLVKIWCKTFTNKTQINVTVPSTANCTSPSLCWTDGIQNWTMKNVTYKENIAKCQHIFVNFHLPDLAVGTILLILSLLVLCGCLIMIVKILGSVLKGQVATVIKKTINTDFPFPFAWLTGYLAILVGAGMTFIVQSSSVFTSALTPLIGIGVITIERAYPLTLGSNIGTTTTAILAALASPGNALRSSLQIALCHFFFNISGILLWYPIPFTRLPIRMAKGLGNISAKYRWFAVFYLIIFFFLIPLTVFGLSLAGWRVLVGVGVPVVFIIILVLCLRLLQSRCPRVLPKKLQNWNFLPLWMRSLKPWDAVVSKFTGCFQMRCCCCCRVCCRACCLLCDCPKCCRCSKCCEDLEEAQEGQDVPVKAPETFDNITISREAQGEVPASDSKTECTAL
Assay: cell-based or functional assay
Output should be the measured figure followed by the unit it is expressed in.

{"BINDER": "xi62G10E4G8 hIgG1 (antibody, V domains shown, chimeric, hIgG1) VH: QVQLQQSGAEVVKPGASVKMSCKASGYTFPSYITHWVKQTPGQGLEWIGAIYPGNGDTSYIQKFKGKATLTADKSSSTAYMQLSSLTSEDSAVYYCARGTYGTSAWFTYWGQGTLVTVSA VL: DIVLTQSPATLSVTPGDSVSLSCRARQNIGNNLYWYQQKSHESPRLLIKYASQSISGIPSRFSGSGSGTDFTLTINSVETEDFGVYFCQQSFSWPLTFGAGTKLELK", "ADCC reporter EC50": "4.56 nM"}
{"BINDER": "63A11D5B4.p1.z15 hIgG1 (antibody, V domains shown, humanized hIgG1) VH: QVQLQQSGAEVVKPGASVKMSCKTSGYTFITYNMHWVKQAPGQGREWIGAIYPGSGDTSYNQKFKGRATLTADKSTSTAYMELSSLRSEDTAVYYCSISTIITTGAVDYWGQGTSVTVSS VL: DIQMTQSPSSLSTSVGDRVTITCKASQDVGTAVAWYQQKPGQSPKLLIYWTSTRHTGVPDRFSGSGSGTDFTLIIRSLQPEDVATYFCQQYSRIPLTFGGGTKVEIK", "ADCC reporter EC50": "1.47 nM"}

Next up:
Value lookup for ADCC reporter EC50; key = xi30H9B8F9 hIgG1 (antibody, V domains shown, chimeric, hIgG1) VH: QVQLQQPGAELVKPGASVKMSCKTSGYTFTTNNMHWVKQTPGQGLEWIGAIYPGNGATAYNQKFKGKATLTADKSSSTAYMQLSSLTSEASAVYYCARGMYGHGAMDYWGQGTSVIVSS VL: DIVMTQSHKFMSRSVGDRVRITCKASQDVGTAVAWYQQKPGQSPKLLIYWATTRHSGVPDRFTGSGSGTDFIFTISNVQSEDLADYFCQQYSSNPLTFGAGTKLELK
1.26 nM
